Test system: Wild type
measurement.notes: S. aureus survival, RN4220 and DeltatarO strains – OD600, teichoic acid synthesis inhibitors, primary screen (AID 463173)
settings: S. aureus RN4220 wild type/DeltatarO growth, OD600, 18 h, hits give low values, screened at 18.75 µg/mL (by protocol)
Among all 52,000 compounds or so, about 1,700 (3.3%) were called active. Only a selection was taken, and actives are over-represented in it overall.
# Lookup of reported survival keyed by entry
Answer format: numeric, % implied, no suffix.

Specify survival for Cc1cccc(-c2nc(CCNC(=O)Cc3ccccc3)cs2)c1 and stop. -1

---

Tested on: Wild type
measurement.notes: S. aureus survival, RN4220 and DeltatarO strains – OD600, teichoic acid synthesis inhibitors, primary screen (AID 463173)
settings: S. aureus RN4220 wild type/DeltatarO growth, OD600, 18 h, hits give low values, screened at 18.75 µg/mL (by protocol)
About 1,700 (3.3%) of roughly 52,000 compounds were called active. The full list was thinned out, with actives kept by preference.
Threshold check on survival: strictly below 10% is met; on or above 10% is not met.

Examples from the recorded data:
{"compound": "COc1ccc(OC)c(Nc2ncnc3c2cnn3-c2ccc(C)cc2)c1", "group": "not met"}
{"compound": "COc1ccc(-n2c(=O)c3sc4ccccc4c3n(Cc3ccccc3)c2=O)cc1", "group": "not met"}
{"compound": "Cc1ccn2cc(CNC(=O)c3cccc(C(F)(F)F)c3)nc2c1", "group": "not met"}
{"compound": "COc1ccc(C2C=C(c3ccccc3)Nc3nc(NS(=O)(=O)c4ccc(Cl)cc4)nn32)cc1 (stereo unspecified)", "group": "met"}
{"compound": "Cc1nn(S(=O)(=O)c2ccc(F)cc2)c(C)c1S(=O)(=O)N1CCCCC1", "group": "not met"}
{"compound": "Cc1nn(C(=O)c2cccc([N+](=O)[O-])c2C)c(C)c1S(=O)(=O)N1CCCCCC1", "group": "met"}
{"compound": "CCOC(=O)CSc1nc2ccc(NC(=O)c3cccc(F)c3)cc2s1", "group": "not met"}
{"compound": "COc1ccc(S(=O)(=O)n2nc(C)c(S(=O)(=O)N3CCCCCC3)c2C)cc1C", "group": "not met"}

Answer whether the compound O=S(=O)(Nc1nc2n(n1)C(c1ccc(F)cc1)C=C(c1ccccc1)N2)c1ccc(Cl)cc1 (stereo unspecified) has survival strictly less than 10% not met

Consider COc1ccc(C2C=C(c3ccccc3)Nc3nc(NS(=O)(=O)c4ccc(C)cc4)nn32)cc1 (stereo unspecified) . Does its survival lie strictly below 10%? not met

Does the reported survival of the following compound sit strictly below 10%? COc1ccc(S(=O)(=O)n2nc(C)c(S(=O)(=O)N3CCCCCC3)c2C)cc1OC met

Dear reviewer, please state whether Cc1ccc(NC(=O)N2CCC(CN3CCC(C)CC3)CC2)cc1F has survival strictly beneath 10%. not met

Given the entry CCN(C(=O)/C=C/c1cc(OC)c(OC)c(OC)c1)C1CCCCC1 , would its reported survival be below 10%? not met

Regarding Cc1ccc(C)c(Nc2ncnc3c2cnn3-c2ccc(F)cc2)c1 , kindly confirm whether its survival is beneath 10%. met

---

Tested on: Wild type
measurement.notes: S. aureus survival, RN4220 and DeltatarO strains – OD600, teichoic acid synthesis inhibitors, primary screen (AID 463173)
settings: S. aureus RN4220 wild type/DeltatarO growth, OD600, 18 h, screened at 18.75 µg/mL (by protocol)
Out of some 52,000 compounds screened, about 1,700 (3.3%) were called active. Rule as the data show it: active = survival mostly below about 52% (no sharp cut-off); inactive = mostly above about 56%. This excerpt belongs to a sample that is enriched for actives.
Pick one and only one: active, inactive

Returns: the outcome recorded for CC(C)(C)OC(=O)N1CCC(c2c(C(=O)N3CCN(c4ncccn4)CC3)cnn2-c2ccc(F)cc2)CC1 in this assay. active

Hello, I am checking results. What call was entered for CCCOC(=O)c1ccc(Nc2nc3ccccc3nc2-n2nc(C)cc2C)cc1 ? inactive

Outcome? Cc1cc(C)cc(Nc2nc3ccccc3nc2-n2nc(C)cc2C)c1 active

Tell me the assay call for CC1=C(C(=O)Nc2ccccc2)C(c2ccc(C)o2)NC(=S)N1 (stereo not given) please. inactive

I would be grateful if you could indicate the recorded call for COc1ccc(-c2noc(N3CCC(C(=O)N4CCN(c5ccccc5F)CC4)CC3)n2)cc1 . inactive

// outcome(item) with item = CCCCCNC(=O)CCCCCn1c(=O)[nH]c2ccsc2c1=O inactive

Recorded call for Cc1ccc(-n2ncc(C(=O)N3CCN(c4cccc(C)c4C)CC3)c2C2CCNCC2)c(C)c1 ? inactive

Called result for Cc1cc(C)n(-c2nc3ccccc3nc2Nc2ccc(C(C)C)cc2)n1 active
